Experiment: Solubility in formulation vehicles with different solubilizers
Assay type: physicochemical
Conditions: formulation vehicle with 1% Solutol HS 15, aqueous with cosolvent or surfactant or cyclodextrin; vehicle with 1% Solutol HS 15; 5 °C; read-out: Solubility (mg/ml) measured after 8 weeks
Observable: solubility at 8 weeks (mg/mL)
The figure you give is taken to be in mg/mL; do not add the unit.

In plain terms, CCCCC[C@H](O)c1ccc(N2C(=O)CC[C@@H]2COCc2ccc(C(=O)OC(C)C)s2)cc1 [Cmpd 1] has a documented solubility at 8 weeks of 1.5

====

Experiment: Solubility in formulation vehicles with different solubilizers
Assay type: physicochemical
Conditions: formulation vehicle with 1% POE 40 Stearate, aqueous with cosolvent or surfactant or cyclodextrin; vehicle with 1% POE 40 Stearate; 25 °C; read-out: Solubility (mg/ml) measured after 8 weeks
Observable: solubility at 8 weeks (mg/mL)
The figure you give is taken to be in mg/mL; do not add the unit.

In plain terms, CCCCC[C@H](O)c1ccc(N2C(=O)CC[C@@H]2COCc2ccc(C(=O)OC(C)C)s2)cc1 [Cmpd 1] has a documented solubility at 8 weeks of 1.21

====

Experiment: Solubility in formulation vehicles with different solubilizers
Assay type: physicochemical
Conditions: formulation vehicle with 1% Polysorbate 20, aqueous with cosolvent or surfactant or cyclodextrin; vehicle with 1% Polysorbate 20; 5 °C; read-out: Solubility (mg/ml) measured after 8 weeks
Observable: solubility at 8 weeks (mg/mL)
The figure you give is taken to be in mg/mL; do not add the unit.

In plain terms, CCCCC[C@H](O)c1ccc(N2C(=O)CC[C@@H]2COCc2ccc(C(=O)OC(C)C)s2)cc1 has a documented solubility at 8 weeks of 1.24

====

Assay: Solubility in formulation vehicles with different solubilizers
Assay type: physicochemical
Conditions: formulation vehicle with 1% POE 40 Stearate, aqueous with cosolvent or surfactant or cyclodextrin; vehicle with 1% POE 40 Stearate; 5 °C; read-out: Solubility (mg/ml) measured after 8 weeks
Observable: solubility at 8 weeks (mg/mL)
The figure you give is taken to be in mg/mL; do not add the unit.

In plain terms, CCCCC[C@H](O)c1ccc(N2C(=O)CC[C@@H]2COCc2ccc(C(=O)OC(C)C)s2)cc1 [Cmpd 1] has a documented solubility at 8 weeks of 1.27

====

Assay: Solubility in formulation vehicles with different solubilizers
Type: physicochemical
Conditions: formulation vehicle with 1% POE 40 Stearate, aqueous with cosolvent or surfactant or cyclodextrin; vehicle with 1% POE 40 Stearate; 40 °C; read-out: Solubility (mg/ml) measured after 8 weeks
Observable: solubility at 8 weeks (mg/mL)
The figure you give is taken to be in mg/mL; do not add the unit.

In plain terms, CCCCC[C@H](O)c1ccc(N2C(=O)CC[C@@H]2COCc2ccc(C(=O)OC(C)C)s2)cc1 [Cmpd 1] has a documented solubility at 8 weeks of 1.15

====

Assay: Solubility in formulation vehicles with different solubilizers
Format: physicochemical
Details: formulation vehicle with 1% Polysorbate 20, aqueous with cosolvent or surfactant or cyclodextrin; vehicle with 1% Polysorbate 20; 25 °C; read-out: Solubility (mg/ml) measured after 8 weeks
Observable: solubility at 8 weeks (mg/mL)
The figure you give is taken to be in mg/mL; do not add the unit.

In plain terms, CCCCC[C@H](O)c1ccc(N2C(=O)CC[C@@H]2COCc2ccc(C(=O)OC(C)C)s2)cc1 [Cmpd 1] has a documented solubility at 8 weeks of 1.18
